# tested-target: hCA XII (Homo sapiens)
# Construct: made in house
# test-description: stopped-flow CO2 hydrase assay, hCA XII
# Type: biochemical
# condition-notes: sulfonamido-containing squaramides; mean from 3 assays, stopped flow
recorded-metric: Ki

Example results:
COc1ccc(Nc2c(NCCc3ccc(S(N)(=O)=O)cc3)c(=O)c2=O)cc1 | 158 nM
NS(=O)(=O)c1ccc(CCNc2c(Nc3ccccc3)c(=O)c2=O)cc1 | 96.8 nM

Let's switch to this compound now.
Req: Field: Ki (hCA XII (Homo sapiens)). Entry: NS(=O)(=O)c1ccc(CCNc2c(NCCc3ccc(S(N)(=O)=O)cc3)c(=O)c2=O)cc1
Resp: 87.8 nM

---

Answer each item with its documented melting point.

Example results:
Cc1c(C)c2ccc(OCCCCCNc3c(Nc4ccccc4)c(=O)c3=O)cc2oc1=O [Compound 16j] | > 250 °C
Cc1cc(=O)oc2cc(OCCCCCNc3c(Nc4ccccc4)c(=O)c3=O)ccc12 [Compound 16b] | > 250 °C

Req: Dear colleague, I am looking for the recorded melting point of the following compound: Cc1c(C)c2ccc(OCCCCCNc3c(Nc4ccc(I)cc4)c(=O)c3=O)cc2oc1=O [Compound 16o]
Resp: > 250 °C

---

Answer each item with its documented pKi.
# tested-target: hCA XII (Homo sapiens, UniProt O43570)
# Construct: made in house
# Sequence (O43570 25-354): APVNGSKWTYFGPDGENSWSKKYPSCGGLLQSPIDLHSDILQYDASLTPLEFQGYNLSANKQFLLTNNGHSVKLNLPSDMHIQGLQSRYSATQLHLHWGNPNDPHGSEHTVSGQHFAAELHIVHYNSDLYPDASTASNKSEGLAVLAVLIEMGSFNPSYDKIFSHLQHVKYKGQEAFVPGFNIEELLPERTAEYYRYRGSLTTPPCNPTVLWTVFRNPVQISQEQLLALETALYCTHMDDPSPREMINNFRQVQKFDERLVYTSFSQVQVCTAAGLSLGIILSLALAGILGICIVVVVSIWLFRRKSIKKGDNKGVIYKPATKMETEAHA
# test-description: stopped-flow CO2 hydrase assay, hCA XII
# Assay type: biochemical
# condition-notes: coumarin-containing squaramides; incubation time 6 h; mean from three assays
Numbers only, as −log10 of the molar value.

Example results:
Cc1cc(=O)oc2cc(OCCCCCNc3c(Nc4ccc(Br)cc4)c(=O)c3=O)ccc12 [Compound 16h] | 7.86
O=c1cc(-c2ccccc2)c2ccc(OCCCCCNc3c(Nc4ccccc4)c(=O)c3=O)cc2o1 [Compound 16p] | 7.06
COc1ccc(Nc2c(NCCCCCOc3ccc4c(C)c(C)c(=O)oc4c3)c(=O)c2=O)cc1 [Compound 16k] | 7.34
Cc1cc(=O)oc2cc(OCCCCCCCCCNc3c(Nc4ccccc4)c(=O)c3=O)ccc12 [Compound 16c] | 8.14
Cc1c(C)c2ccc(OCCCCCNc3c(Nc4ccccc4)c(=O)c3=O)cc2oc1=O [Compound 16j] | 7.23

Field: pKi. Fill in for each record below.
1. Cc1c(C)c2ccc(OCCCCCNc3c(Nc4ccc(Cl)cc4)c(=O)c3=O)cc2oc1=O [Compound 16m]
2. Cc1cc(=O)oc2cc(OCCCCCNc3c(Nc4ccc(Cl)cc4)c(=O)c3=O)ccc12 [Compound 16g]
3. Cc1cc(=O)oc2cc(OCCCCCNc3c(Nc4ccc(F)cc4)c(=O)c3=O)ccc12 [Compound 16f]

Resp:
[7.37, 7.61, 7.80]

---

# tested-target: hCA II (Homo sapiens)
# Construct: made in house
# test-description: stopped-flow CO2 hydrase assay, hCA II
# Format: biochemical
# condition-notes: sulfonamido-containing squaramides; mean from 3 assays, stopped flow
recorded-metric: Ki (nM)
One number for each entry, in nM.

NS(=O)(=O)c1ccc(CCNc2c(Nc3ccc(Cl)cc3)c(=O)c2=O)cc1 | 819

Field: Ki. Fill in for each record below.
1. NS(=O)(=O)c1ccc(Nc2c(Nc3ccccc3)c(=O)c2=O)cc1
2. COc1ccc(Nc2c(NCCc3ccc(S(N)(=O)=O)cc3)c(=O)c2=O)cc1
3. NS(=O)(=O)c1ccc(CCNc2c(NCCc3ccc(S(N)(=O)=O)cc3)c(=O)c2=O)cc1
4. NS(=O)(=O)c1cccc(Nc2c(Nc3ccccc3)c(=O)c2=O)c1

Resp:
[65.9, 724, 56.2, 95.5]

---

Answer each item with its documented pKi.
# tested-target: hCA IX (Homo sapiens, UniProt Q16790)
# Construct: made in house
# test-description: stopped-flow CO2 hydrase assay, hCA IX
# Format: biochemical
# condition-notes: coumarin-containing squaramides; incubation time 6 h; mean from three assays
Give bare numbers, as −log10 of the molar value.

Example results:
Cc1c(C)c2ccc(OCCCCCNc3c(Nc4ccccc4)c(=O)c3=O)cc2oc1=O [Compound 16j] | 6.97
O=c1cc(-c2ccccc2)c2ccc(OCCCCCNc3c(Nc4ccccc4)c(=O)c3=O)cc2o1 [Compound 16p] | 6.57
Cc1cc(=O)oc2cc(OCCCCCCCCCCCCNc3c(Nc4ccccc4)c(=O)c3=O)ccc12 [Compound 16d] | 7.74

Let's switch to this molecule now.
Req: Dear colleague, I am looking for the recorded pKi of the following molecule: Cc1cc(=O)oc2cc(OCCCCCCCCCNc3c(Nc4ccccc4)c(=O)c3=O)ccc12 [Compound 16c]
Resp: 7.72

---

# tested-target: hCA IX (Homo sapiens, UniProt Q16790)
# Construct: made in house
# test-description: stopped-flow CO2 hydrase assay, hCA IX
# Format: biochemical
# condition-notes: coumarin-containing squaramides; incubation time 6 h; mean from three assays
recorded-metric: pKi
Answers are plain numbers, as −log10 of the molar value.

Example results:
Cc1c(C)c2ccc(OCCCCCNc3c(Nc4ccc(I)cc4)c(=O)c3=O)cc2oc1=O [Compound 16o] | 7.04
Cc1cc(=O)oc2cc(OCCCCCNc3c(Nc4ccc(F)cc4)c(=O)c3=O)ccc12 [Compound 16f] | 7.36
Cc1c(C)c2ccc(OCCCCCNc3c(Nc4ccc(Cl)cc4)c(=O)c3=O)cc2oc1=O [Compound 16m] | 7.02

Let's switch to this compound now.
Req: Dear colleague, I am looking for the recorded pKi of the following compound: COc1ccc(Nc2c(NCCCCCOc3ccc4c(C)c(C)c(=O)oc4c3)c(=O)c2=O)cc1 [Compound 16k]
Resp: 7.06

---

Answer each item with its documented melting point.

Example results:
O=c1cc(-c2ccccc2)c2ccc(OCCCCCNc3c(Nc4ccccc4)c(=O)c3=O)cc2o1 [Compound 16p] | 209 to 210 °C
NS(=O)(=O)c1ccc(CCNc2c(Nc3ccc(Cl)cc3)c(=O)c2=O)cc1 | > 250 °C
COc1ccc(Nc2c(NCCCCCOc3ccc4c(C)c(C)c(=O)oc4c3)c(=O)c2=O)cc1 [Compound 16k] | > 250 °C
Cc1cc(=O)oc2cc(OCCCCCNc3c(Nc4ccc(Br)cc4)c(=O)c3=O)ccc12 [Compound 16h] | 248 to 249 °C
Cc1cc(=O)oc2cc(OCCCCCCCCCNc3c(Nc4ccccc4)c(=O)c3=O)ccc12 [Compound 16c] | 200 to 201 °C

Field: melting point. Fill in for each record below.
1. NS(=O)(=O)c1ccc(Nc2c(Nc3ccccc3)c(=O)c2=O)cc1
2. Cc1cc(=O)oc2cc(OCCCCCNc3c(Nc4ccc(I)cc4)c(=O)c3=O)ccc12 [Compound 16i]

Resp:
> 250 °C
> 250 °C

Field: melting point. Fill in for each record below.
1. Cc1c(C)c2ccc(OCCCCCNc3c(Nc4ccc(Cl)cc4)c(=O)c3=O)cc2oc1=O [Compound 16m]
2. Cc1c(C)c2ccc(OCCCCCNc3c(Nc4ccc(F)cc4)c(=O)c3=O)cc2oc1=O [Compound 16l]
3. COc1ccc(Nc2c(NCCCCCOc3ccc4c(C)cc(=O)oc4c3)c(=O)c2=O)cc1 [Compound 16e]
4. NS(=O)(=O)c1ccc(CCNc2c(Nc3ccc(Br)cc3)c(=O)c2=O)cc1
5. Cc1cc(=O)oc2cc(OCCCNc3c(Nc4ccccc4)c(=O)c3=O)ccc12 [Compound 16a]
6. COc1ccc(Nc2c(NCCc3ccc(S(N)(=O)=O)cc3)c(=O)c2=O)cc1
7. Cc1cc(=O)oc2cc(OCCCCCCCCCCCCNc3c(Nc4ccccc4)c(=O)c3=O)ccc12 [Compound 16d]

Resp:
1: > 250 °C; 2: > 250 °C; 3: 215 to 216 °C; 4: > 250 °C; 5: > 250 °C; 6: > 250 °C; 7: 178 to 179 °C

---

# tested-target: hCA IX (Homo sapiens, UniProt Q16790)
# Construct: made in house
# test-description: stopped-flow CO2 hydrase assay, hCA IX
# Assay type: biochemical
# condition-notes: Ki (CA II)/Ki (CA IX)
Answer each item with its documented S.I. II/IX.
Give bare numbers.

Example results:
COc1c(Nc2cccc(S(N)(=O)=O)c2)c(=O)c1=O | 1.6
NS(=O)(=O)c1ccc(CCNc2c(Nc3ccccc3)c(=O)c2=O)cc1 | 9.6
NS(=O)(=O)c1ccc(CCNc2c(Nc3ccc(Br)cc3)c(=O)c2=O)cc1 | 14

Field: S.I. II/IX. Fill in for each record below.
1. NS(=O)(=O)c1cccc(Nc2c(Nc3ccccc3)c(=O)c2=O)c1
2. NS(=O)(=O)c1ccc(CCNc2c(NCCc3ccc(S(N)(=O)=O)cc3)c(=O)c2=O)cc1
3. NS(=O)(=O)c1ccc(Nc2c(Nc3ccccc3)c(=O)c2=O)cc1

Resp:
1. 3.2
2. 0.68
3. 3.4

Field: S.I. II/IX. Fill in for each record below.
1. NS(=O)(=O)c1ccc(CCNc2c(Nc3ccc(I)cc3)c(=O)c2=O)cc1
2. COc1ccc(Nc2c(NCCc3ccc(S(N)(=O)=O)cc3)c(=O)c2=O)cc1
3. NS(=O)(=O)c1ccc(CCNc2c(Nc3ccc(Cl)cc3)c(=O)c2=O)cc1

Resp:
[9.2, 7.8, 1.7]
